Reference source: paper PMC8854719

- test_description: Plasma pharmacokinetics of pamiparib (LC-MS/MS, non-compartmental)
- Parameters: species or system human
- run_parameters: human, in vivo, 120 mg, Cmax, Steady State (Cycle 1 Day 17)

| record_smiles | Cmax |
| --- | --- |
| C[C@]12CCCN1CC1=NNC(=O)c3cc(F)cc4[nH]c2c1c34 | 4530 ng/mL |

---

- test_description: Plasma pharmacokinetics of pamiparib (LC-MS/MS, non-compartmental)
- Parameters: species or system human
- run_parameters: human, in vivo, 5 mg, Cmax, Single Dose (Cycle 1 Day 1)

| record_smiles | Cmax / ng/mL |
| --- | --- |
| C[C@]12CCCN1CC1=NNC(=O)c3cc(F)cc4[nH]c2c1c34 | 193 |
